# System: SF-295
# Assay method text: NCI tumour cell line growth inhibition, 48 h
Activity calls are given as the source filed them. No stated cut-off is given here; in the data, active = GI50 up to about 1.1 µM and inactive = higher.
Output constraint: value belongs to true (active), false (inactive)

Sample answers from the record:
COC(=O)c1cc(C)ccc1CC(Cc1cccc(C)c1)C(=O)OC (centres undefined) ... false
CC1=CCC[C@@](C)(O)[C@@H]2C[C@H]3C(CSc4ccccc4)C(=O)O[C@H]3[C@@H](O2)[C@H](C)CCC1 (some centres undefined) ... false
NNC(=O)c1cccc2c1Oc1ccccc1S2 ... false

**Query** Field: outcome | Entry: C[n+]1c(-c2ccc(/C=N\N3CCN(/N=C/c4ccc(-c5cn6ccccc6[n+]5C)cc4)CC3)cc2)cn2ccccc21
**Result** false

**Query** Please indicate how the test categorized CC(C)(C)c1ccc(OCCOCCOc2ccc(C(C)(C)C)cc2S(=O)(=O)Nc2ccc([N+](=O)[O-])cc2)c(S(=O)(=O)Nc2ccc([N+](=O)[O-])cc2)c1 .
**Result** false

**Query** // return assay outcome for OCc1ccn2c1[C@@H](O)CC2
**Result** false

**Query** Would you mind telling me which call this test gave CC(C(=O)NCNC(=O)c1ccccc1)C(=O)NCc1ccccc1 (centres undefined) ?
**Result** false

**Query** Dear all, I need the recorded test outcome for COc1cccc2c1C(=O)c1c(O)c3c(c(O)c1C2=O)C[C@@](O)(C(=O)CO)C[C@@H]3OC1CC(N)C(OC)C(C)O1 (some centres undefined) , thank you.
**Result** true

**Query** What outcome does the record of this test show for Cc1ccccc1Nc1cn(COCc2ccccc2)c(=O)[nH]c1=O ?
**Result** false

---

# Tested on: MDA-MB-435
# Assay method text: NCI tumour cell line growth inhibition, 48 h
Calls of active or inactive are those of the source. No stated cut-off is given here; in the data, active = GI50 up to about 1.1 µM and inactive = higher.
Please state which outcome applies, choosing from 1 (yes) = active, 0 (no) = inactive

Worked examples, 3 compounds total:
CCOC(=O)C1=C(C)N(c2ccc(C)cc2)C2(O)C=CC(O)=C3C(=O)c4ccccc4C(=O)C312 (stereo not given) ... 0 (no)
Cc1cccc(/N=N/c2ccc(/N=N/c3c(O)ccc4ccccc34)cc2C)c1 ... 0 (no)
CN(C)c1ccc(/C=C/C=c2/c3ccccc3n3c2cc(-c2ccccc2)[n+]3C)cc1 ... 1 (yes)

**Query** What did the test return for COc1c(O)c(O)c2c(c1O)C(=O)c1cc(C)cc(O)c1C2=O ?
**Result** 0 (no)

**Query** Could you check what this test reported for CCc1n[nH]c(=O)n1/N=C(\C)c1ccccc1 ?
**Result** 0 (no)

**Query** Which outcome was entered for the compound Nc1ccc2nc3c(nc2c1)C(=O)c1ccccc1-3 in this test?
**Result** 0 (no)

**Query** Hello, I am checking results. What call was entered for S=c1nc(Nc2ccc(Br)cc2)c2c3c(sc2[nH]1)CN(N1CCc2c(sc4[nH]c(=S)nc(Nc5ccc(Br)cc5)c24)C1)CC3 ?
**Result** 0 (no)

**Query** Any idea what this test logged for COC(=O)C(Cc1c[nH]c2ccccc12)NC(=O)c1ccc(-c2ccc(Cl)cc2Cl)o1 (stereo not given) ?
**Result** 0 (no)

**Query** // outcome(item) with item = C[S+]([O-])c1cc(=O)c2ccccc2s1 (stereo not given)
**Result** 0 (no)

**Query** # lookup: test call for N#CCCC1C(C#N)C2CC1C1C3C=CC(C3)C21 (stereo not given)
**Result** 0 (no)
